All figures here come from ChEMBL document CHEMBL4699398.

test system: NCI-H1975; experiment: Antiproliferative activity against human H1975 cells assessed as inhibition of cell growth incubated for 72 hrs by CCK-8 assay; conditions: NCI-H1975, 72 h
Entries and their pIC50 values follow.
pIC50 field: float, defined as -log10 of concentration (mol/L).

INSERT INTO measurements (compound, observed_result) VALUES
  ('C[n+]1cc2c3c(ccc2c2ccc4cc5c(cc4c21)OCO5)OCO3 [SANGUINARIUM CHLORIDE]', 5.88);

Entry COC1c2c(ccc3c2OCO3)-c2ccc3cc4c(cc3c2N1C)OCO4 (stereo not given) , tested on NCI-H1975, has a reported pIC50 of 5.93

Entry CN1Cc2c(ccc3c2OCO3)-c2ccc3cc4c(cc3c21)OCO4 [DIHYDROSANGUINARINE] , tested on NCI-H1975, has a reported pIC50 of 4.72

Entry CCCNC1c2c(ccc3c2OCO3)-c2ccc3cc4c(cc3c2N1C)OCO4 (stereo not given) , tested on NCI-H1975, has a reported pIC50 of 6.00

* * *

Entries and their IC50 values follow.
test system: NCI-H1975; assay: Antiproliferative activity against human H1975 cells assessed as inhibition of cell growth incubated for 72 hrs by CCK-8 assay; conditions: NCI-H1975, 72 h
Form entry: value (µM) — number only.

INSERT INTO measurements (compound, quantity_kind, observed_result) VALUES
  ('CN1c2c(ccc3cc4c(cc23)OCO4)-c2ccc3c(c2C1NC1CCCC1)OCO3 (stereo not given)', 'IC50', 1.57),
  ('CN1c2c(ccc3cc4c(cc23)OCO4)-c2ccc3c(c2C1C#N)OCO3 (stereo not given)', 'IC50', 0.79),
  ('CC(C)NC1c2c(ccc3c2OCO3)-c2ccc3cc4c(cc3c2N1C)OCO4 (stereo not given)', 'IC50', 0.96),
  ('CN1c2c(ccc3cc4c(cc23)OCO4)-c2ccc3c(c2C1NCc1ccccc1)OCO3 (stereo not given)', 'IC50', 3.13),
  ('CCNC1c2c(ccc3c2OCO3)-c2ccc3cc4c(cc3c2N1C)OCO4 (stereo not given)', 'IC50', 0.94);

We now examine a further compound.
Memo: CN1c2c(ccc3cc4c(cc23)OCO4)-c2ccc3c(c2C1N1CCOCC1)OCO3 (stereo not given) , reported IC50: 1.16
